# method-notes: Mean residence time in healthy human subjects at 2 gram, iv administered in 5 mins infusion
# Format: ADME, organism-based
# assay-context: in vivo
recorded-metric: MRT (h)
Give bare numbers, in h.

Exercise: MRT lookup needed for `CC(C)(O/N=C(\C(=O)N[C@@H]1C(=O)N2C(C(=O)[O-])=C(C[n+]3ccccc3)CS[C@H]12)c1csc(N)n1)C(=O)O` , thanks.
Solution: 2.1

====

# method-notes: Total clearance in healthy human subjects at […], iv administered 20 mins infusion
# Assay type: ADME, organism-based
# assay-context: in vivo
recorded-metric: clearance (mL/min)
Give bare numbers, in mL/min.

Exercise: clearance lookup needed for CC(C)(O/N=C(\C(=O)N[C@@H]1C(=O)N2C(C(=O)[O-])=C(C[n+]3ccccc3)CS[C@H]12)c1csc(N)n1)C(=O)O [CEFTAZIDIME] , thanks.
Solution: 101

====

# method-notes: Renal clearance in healthy human subjects
# Format: ADME, organism-based, Kidney
# assay-context: in vivo, read-out: CL_renal
recorded-metric: CL renal
Param answer (str): number followed by unit.

Exercise: CL renal lookup needed for CC(C)(O/N=C(\C(=O)N[C@@H]1C(=O)N2C(C(=O)[O-])=C(C[n+]3ccccc3)CS[C@H]12)c1csc(N)n1)C(=O)O [CEFTAZIDIME] , thanks.
Solution: 100 mL/min

====

# method-notes: Renal clearance in cystic fibrosis patient
# Format: ADME, organism-based, Kidney
# assay-context: human, in vivo; read-out: CL_renal
recorded-metric: CL renal (mL/min)
Numbers only, in mL/min.

Exercise: CL renal lookup needed for `CC(C)(O/N=C(\C(=O)N[C@@H]1C(=O)N2C(C(=O)[O-])=C(C[n+]3ccccc3)CS[C@H]12)c1csc(N)n1)C(=O)O` , thanks.
Solution: 125

====

# method-notes: Total clearance in cystic fibrosis patient at […], iv administered 20 mins infusion
# Assay type: ADME, organism-based
# assay-context: human, in vivo
recorded-metric: clearance (mL/min)
One number for each entry, in mL/min.

Exercise: clearance lookup needed for CC(C)(O/N=C(\C(=O)N[C@@H]1C(=O)N2C(C(=O)[O-])=C(C[n+]3ccccc3)CS[C@H]12)c1csc(N)n1)C(=O)O [CEFTAZIDIME] , thanks.
Solution: 142

====

# method-notes: Terminal half life in healthy human subjects at 2 gram, iv administered in 5 mins infusion
# Format: ADME, organism-based
# assay-context: in vivo, read-out: beta t1/2 (converted)
recorded-metric: half-life

Exercise: half-life lookup needed for `CC(C)(O/N=C(\C(=O)N[C@@H]1C(=O)N2C(C(=O)[O-])=C(C[n+]3ccccc3)CS[C@H]12)c1csc(N)n1)C(=O)O` , thanks.
Solution: 1.94 h

====

# method-notes: Total clearance in cystic fibrosis patient
# Format: ADME, organism-based
# assay-context: human, in vivo
recorded-metric: clearance (mL/min)
One number for each entry, in mL/min.

Exercise: clearance lookup needed for `CC(C)(O/N=C(\C(=O)N[C@@H]1C(=O)N2C(C(=O)[O-])=C(C[n+]3ccccc3)CS[C@H]12)c1csc(N)n1)C(=O)O` , thanks.
Solution: 127

====

# method-notes: Volume of distribution at steady state in cystic fibrosis patient at 2 gram, iv administered in 5 mins infusion
# Format: ADME, organism-based
# assay-context: human, in vivo, read-out: Vdss
recorded-metric: Vd (L)
Give bare numbers, in L.

Exercise: Vd lookup needed for `CC(C)(O/N=C(\C(=O)N[C@@H]1C(=O)N2C(C(=O)[O-])=C(C[n+]3ccccc3)CS[C@H]12)c1csc(N)n1)C(=O)O` , thanks.
Solution: 9.14
